Values from patent US20240002429A1

System: BT-474 human mammary tumor cells
run-description: Cytotoxicity on BT-474 cells, LDH
Assay type: cell-based
assay-context: Homo sapiens, BT-474, 48 h
pIC50: −log10 of the molar value.
experimental-endpoint: pIC50

| compound | obs-value |
| --- | --- |
| CCN(CC)C(=O)O[C@H]1CC[C@]2(C)C3CC[C@@]4(C)C(CC[C@@H]4C(C)CCCC(C)C)C3C[C@@H](NCCc3c[nH]cn3)[C@@]2(O)C1 (stereo partly shown) | 4.55 |

====

Test system: BT-474 human mammary tumor cells
run-description: Cytotoxicity on BT-474 cells, LDH
Type: cell-based
assay-context: BT-474, LDH, 48 h; log of IC50 in μM
experimental-endpoint: Mean LogIC50 (±SEM)

| molecule | obs-value |
| --- | --- |
| CCN(CC)C(=O)O[C@H]1CC[C@]2(C)C3CC[C@@]4(C)C(CC[C@@H]4C(C)CCCC(C)C)C3C[C@@H](NCCc3c[nH]cn3)[C@@]2(O)C1 (stereo partly shown) [DX131] | 1.45 |
| CCC(=O)O[C@H]1CC[C@]2(C)[C@H]3CC[C@]4(C)[C@@H]([C@H](C)CCCC(C)C)CC[C@H]4[C@@H]3C[C@@H](NCCc3c[nH]cn3)[C@@]2(O)C1 [DX107] | 0.95 |
| CC(C)CCC[C@@H](C)[C@H]1CC[C@H]2[C@@H]3C[C@@H](NCCc4c[nH]cn4)[C@@]4(O)C[C@@H](O)CC[C@]4(C)[C@H]3CC[C@]12C [DX101, reference compound] | 0.99 |
| CCCCOC(=O)O[C@H]1CC[C@]2(C)[C@H]3CC[C@]4(C)[C@@H]([C@H](C)CCCC(C)C)CC[C@H]4[C@@H]3C[C@@H](NCCc3c[nH]cn3)[C@@]2(O)C1 [DX119] | 1.41 |
| CC(C)CCCC(C)[C@H]1CCC2C3C[C@@H](NCCc4c[nH]cn4)[C@@]4(O)C[C@@H](OC(=O)NCCc5c[nH]cn5)CC[C@]4(C)C3CC[C@@]21C (stereo partly shown) [DX117] | 0.72 |
| CCCCCC(=O)O[C@H]1CC[C@]2(C)[C@H]3CC[C@]4(C)[C@@H]([C@H](C)CCCC(C)C)CC[C@H]4[C@@H]3C[C@@H](NCCc3cnc[nH]3)[C@@]2(O)C1 [DX113] | 1.38 |
| CCOC(=O)O[C@H]1CC[C@]2(C)[C@H]3CC[C@]4(C)[C@@H]([C@H](C)CCCC(C)C)CC[C@H]4[C@@H]3C[C@@H](NCCc3c[nH]cn3)[C@@]2(O)C1 [DX121] | 1.47 |
